Tested on: ATP;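 further: ATP exposure 15 min at 22 °C before imaging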
protocol: switch fluorescence ratio, 500 uM ATP over buffer (Cy3 cluster intensity, sum of 5 cycles each) (fold (ratio)); higher = stronger signal-on switching upon ATP binding; sequences stand for … in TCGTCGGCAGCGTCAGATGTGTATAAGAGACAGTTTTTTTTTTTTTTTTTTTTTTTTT…TC
conditions: aptamer strand: ATP DNA aptamer (quencher-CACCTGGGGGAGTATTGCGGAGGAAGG + anchor), 100 nM annealed; ATP concentration: 500 uM
recorded_metric: switch fluorescence ratio
Simply state the number, no unit and no words.

Lookup: Recorded switch fluorescence ratio for `GTGATTTCGG` , please?
Found: 1.02

Lookup: `CGGGCGGCAG` , same question.
Found: 1.04

Lookup: `TAGGGGGCTA` , same question.
Found: 0.995

Lookup: `AATGTTTGGG` , same question.
Found: 0.981

Lookup: `ACGCCGGCTT` , same question.
Found: 1.27

Lookup: `TTTAGGTTCT` , same question.
Found: 1.01

Lookup: `CAGTGGGGCA` , same question.
Found: 1.03

Lookup: `ATGTGTGAAA` , same question.
Found: 1

Lookup: `AAATTCAATG` , same question.
Found: 0.995

Lookup: `TGTTTAAGCG` , same question.
Found: 0.958

Lookup: `TTGGTTACTT` , same question.
Found: 1.01

Lookup: `TTTCGAGCTT` , same question.
Found: 1.01

Lookup: `GGGGTGTACA` , same question.
Found: 0.969

Lookup: `AAGTTGGAGG` , same question.
Found: 0.98

Lookup: `GTGTTAACTG` , same question.
Found: 0.984

Lookup: `AACGCGTGGT` , same question.
Found: 1.01

Lookup: `CGTAGCTTAG` , same question.
Found: 1.25

Lookup: `TTGTTTGGCT` , same question.
Found: 1.01

Lookup: `TTTAATATCT` , same question.
Found: 0.998

Lookup: `ACGGCGCTTA` , same question.
Found: 1.19

Lookup: `CGTTTTCAGA` , same question.
Found: 0.997

Lookup: `AAAGGCGGTG` , same question.
Found: 0.976

Lookup: `CGTTCAATTA` , same question.
Found: 0.996

Lookup: `AAGCCAAATG` , same question.
Found: 0.994

Lookup: `TGACGCGTCA` , same question.
Found: 1.01

Lookup: `GCCTTGAGGA` , same question.
Found: 0.997

Lookup: `TTATTGTTTT` , same question.
Found: 1.02

Lookup: `ATAATGTCGC` , same question.
Found: 0.97

Lookup: `CCCGACAGCC` , same question.
Found: 1.97

Lookup: `CCTGGGGATA` , same question.
Found: 1.04

Lookup: `GCTTGCATTT` , same question.
Found: 1.02

Lookup: `GGAAAAGTTG` , same question.
Found: 0.985

Lookup: `TCTGGACTCG` , same question.
Found: 1

Lookup: `TTATTCGGTA` , same question.
Found: 0.998

Lookup: `TATTTGGAGT` , same question.
Found: 1.01

Lookup: `GAGTTTATGG` , same question.
Found: 0.984

Lookup: `AGCACCGGGT` , same question.
Found: 1.02

Lookup: `ACAATTGGAG` , same question.
Found: 0.997

Lookup: `TCTGGAAGGG` , same question.
Found: 1.02

Lookup: `GGCCGGTGGA` , same question.
Found: 1.02

Lookup: `CACCATTAGT` , same question.
Found: 0.98

Lookup: `GGTTGTCCTA` , same question.
Found: 0.978

Lookup: `ATTTCCCGAT` , same question.
Found: 0.979
